Where these numbers come from: PubChem BioAssay (NCI)

- Test system: MOLT-4 leukemia
- test: NCI-60 one-dose screen, 48 h
- test conditions: 10 µM unless noted
Compounds without any hit were thinned out: in the full panel of roughly 83,000, 20% have a hit. The source made the active and inactive calls. How the source made its calls: active means growth percent below 10; inactive means the rest.
Choose the fitting class; nothing outside active, inactive is accepted.

Query block: Give the logged outcome of this assay for the following compound: CN(C)CC1C(=O)O[C@H]2[C@H]1CC/C(COC(=O)NCc1ccc(Cn3c(=O)sn(CCCI)c3=O)cc1)=C\CC[C@@]1(C)O[C@@H]21 (some centres undefined)
Result block: active

Query block: Give the logged outcome of this assay for the following compound: Cc1ccc(C23CCC(=O)N2CCc2cncn23)cc1 (centres undefined)
Result block: inactive

Query block: Give the logged outcome of this assay for the following compound: `Cc1ccc(-c2nc(C#N)c(S(=O)(=O)n3nc(C)cc3N)o2)cc1`
Result block: active

Query block: Give the logged outcome of this assay for the following compound: `O=C(Nc1ccccc1C(F)(F)F)C1=NCCCCN1`
Result block: inactive

Query block: Give the logged outcome of this assay for the following compound: `N/C(=N\c1nc2ccccc2s1)NC(=O)Nc1ccccc1`
Result block: inactive

Query block: Give the logged outcome of this assay for the following compound: `COc1ccccc1NC(=O)n1c(=O)cc(C)c2ccc(O)cc21`
Result block: inactive

Query block: Give the logged outcome of this assay for the following compound: `O=C1NCCS(=O)(=O)/C1=C\C=C\c1cccc(C(F)(F)F)c1`
Result block: active

Query block: Give the logged outcome of this assay for the following compound: `CC(=O)OCCOc1cc(Cl)c(Cl)cc1Cl`
Result block: inactive

Query block: Give the logged outcome of this assay for the following compound: `Cc1c(C(=O)C(SC(=S)N2CCOCC2)SC(=S)N2CCOCC2)nnn1-c1ccc([N+](=O)[O-])cc1`
Result block: inactive

Query block: Give the logged outcome of this assay for the following compound: `O=C(Nc1cccc(Cl)c1)Oc1c(Cl)c(Cl)c(Cl)c(Cl)c1Cl`
Result block: inactive

Query block: Give the logged outcome of this assay for the following compound: `O=c1c2cccc3c(N4CCOCC4)ccc(c32)c2nc3ccccc3n12`
Result block: inactive

Query block: Give the logged outcome of this assay for the following compound: CCOC(=O)CC1CSC(N/N=C(/C)c2cccc(C(F)(F)F)c2)=N1 (centres undefined)
Result block: inactive

Query block: Give the logged outcome of this assay for the following compound: `O=C(Nc1ccc(Cl)cc1)C1=NCCCCN1`
Result block: inactive

Query block: Give the logged outcome of this assay for the following compound: `N#CSCc1cc(Cl)c(CSC#N)cc1Cl`
Result block: inactive
